Here we gather pIC50 data for Tyrosine-protein kinase JAK1 (Homo sapiens, UniProt P23458) reported by several publications.
pIC50: −log10 of the molar value.

structureNotation: Cc1cnc(Nc2cc(CN(C)C)ns2)nc1N1CC(CC#N)(N2CCN3CCCC[C@H]3C2)C1
target: Tyrosine-protein kinase JAK1 (Homo sapiens, UniProt P23458)
pIC50: > 7.60
//
structureNotation: N#CCC1(n2cc(-c3ncnc4[nH]ccc34)cn2)CN(C2CCN(C(=O)c3cccc4ccccc34)CC2)C1
target: Tyrosine-protein kinase JAK1 (Homo sapiens, UniProt P23458)
pIC50: ≥ 8.30
//
structureNotation: N#CCC1(n2cc(-c3ncnc4[nH]ccc34)cn2)CN(C2CCN(Cc3ccc(-c4conn4)cc3)CC2)C1
target: Tyrosine-protein kinase JAK1 (Homo sapiens, UniProt P23458)
pIC50: 7.70 to 8.30
//
structureNotation: Cc1ccc(C(=O)Nc2cccc3c(-c4ccnc(NC(=O)C5CC5)c4)c[nH]c23)cn1
target: Tyrosine-protein kinase JAK1 (Homo sapiens, UniProt P23458)
pIC50: > 7.00

###

Here we gather IC50 data for Tyrosine-protein kinase JAK1 (Homo sapiens) reported by several publications.
assayReadout: IC50

compound: Cc1cc(Nc2ncc(C)c(N3CC(CC#N)(N4CC5(CN(C)C5)C4)C3)n2)sn1
assayReadout: IC50
obsValue: < 1000 nM
//
compound: C[C@@H](O)c1nc2cnc3ccoc3c2n1[C@H]1CC[C@H](CC#N)CC1
assayReadout: IC50
obsValue: < 10 nM
//
compound: NC(=O)c1cnc(Nc2ccc3c(c2)OC[C@H]2CN(C4CCOCC4)CCN32)nc1NC1CC1
assayReadout: IC50
obsValue: < 500 nM
//
compound: COc1cnc2nc1-c1ccc(c(F)c1)C(=O)NCCCCOCc1cc(ccc1N1CCOCC1)N2
assayReadout: IC50
obsValue: 11 to 100 nM
//
compound: CCCCC1(n2cc(-c3nc(-c4cnn(C)c4)cc4nccn34)cn2)CN(S(=O)(=O)C(F)(F)F)C1
assayReadout: IC50
obsValue: 100 to 1000 nM
//
compound: N#CC[C@H]1CC[C@H](n2c(CO)nc3cnc4ccsc4c32)CC1
assayReadout: IC50
obsValue: ≤ 100 nM
//
compound: NC(=O)c1cnc(Nc2ccc3c(c2)NC[C@H](O)CO3)nc1NC1CNC1
assayReadout: IC50
obsValue: 10 to 100 nM
//
compound: CCC1=CB(O)Oc2ccc(Nc3nn([C@@H]4COCC[C@H]4C#N)cc3C(N)=O)cc21 (relative stereo)
assayReadout: IC50
obsValue: < 10 nM
//
compound: CC1(C)[C@H](Nc2c(C(N)=O)cnn3cc(-c4cncc(C(=O)O)c4)cc23)CC[C@]1(C)N
assayReadout: IC50
obsValue: 35.2 nM
//
compound: CCS(=O)(=O)N1CC(CC#N)(n2cc(-c3nc(Nc4cnn(C5CCOCC5)c4)nc4ccsc34)cn2)C1
assayReadout: IC50
obsValue: < 50 nM
//
compound: O=C1Nc2ccc(cc2)OCc2cc(ccc2OCC2CCCOC2)Nc2nccc(n2)-c2ccc1cc2[N+](=O)[O-] (stereo not shown)
assayReadout: IC50
obsValue: 1000 to 10000 nM
//
compound: O=C1NCCCCOCc2cc(ccc2Cl)Nc2nccc(n2)-c2ccc1cc2F
assayReadout: IC50
obsValue: 101 to 1000 nM
//
compound: O=C(CC(=O)C(F)(F)F)Nc1cccc(-c2cnc3ccccc3n2)c1
assayReadout: IC50
obsValue: > 10000 nM

###

Here we gather IC50 data for Tyrosine-protein kinase JAK1 (Homo sapiens, UniProt P23458) reported by several publications.

molecule: O=C(Nc1cccc2c(-c3ccnc(NC(=O)C4CC4)c3)c[nH]c12)c1ccc[nH]1
IC50: 100 to 1000 nM
--
molecule: CC1=Cc2cc(Nc3nn([C@@H]4COCC[C@H]4C#N)cc3C(N)=O)ccc2OB1O (relative stereo)
IC50: < 10 nM
--
molecule: Cn1cc(Nc2nc(-c3cnn(C4(CC#N)CCOCC4)c3)c3sccc3n2)cn1
IC50: 50 to 500 nM

###

Here we gather IC50 data for Tyrosine-protein kinase JAK1 (Homo sapiens, UniProt P23458) reported by several publications.
assayReadout: IC50

compound: Cc1nc2cnc3ccoc3c2n1[C@H]1CC[C@H](CC#N)OC1
obsValue: < 10 nM
//
compound: Cc1cc(Nc2ncc(C)c(N3CC(CC#N)(NC(=O)c4cccc(F)c4)C3)n2)sn1
obsValue: < 10 nM
//
compound: Cc1cc(Nc2ncc(C)c(N3CC(CC#N)(N4CCN(C)C(C)C4)C3)n2)sn1 (stereo not drawn)
obsValue: < 10 nM
//
compound: CC[C@H](Cn1ccc2cnc(Nc3cnn(CC(N)=O)c3)nc21)C(C)C
obsValue: < 100 nM
//
compound: N#CCC(C1CC1)n1cc(-c2nc(C(=O)NC3CCCCC3)cc3nccn23)cn1 (stereo not drawn)
obsValue: > 1000 nM
//
compound: CO[C@H](C)Cn1cc(-c2cc3nccn3c(-c3cnn(C4(CCF)CN(S(=O)(=O)C(F)(F)F)C4)c3)n2)cn1
obsValue: 100 to 1000 nM
//
compound: N#CCC1(n2cc(-c3ncnc4[nH]ccc34)cn2)CN(C2CCN(C(=O)c3ccc(-c4nc5ccccc5o4)cc3)CC2)C1
obsValue: 5 to 20 nM
//
compound: N#CCC1(n2cc(-c3ncnc4[nH]ccc34)cn2)CN(C2CCN(C(=O)C3CCC(c4ccc(Cl)cc4)CC3)CC2)C1 (stereo not drawn)
obsValue: 5 to 20 nM
//
compound: CN(c1ncnc2[nH]ccc12)C1CC2(C1)CN(C(=O)c1ccn(C)n1)C2
obsValue: 100 to 1000 nM
//
compound: CCOC(=O)Cn1cc(Nc2ncc3ccn(CC4CCS(=O)(=O)CC4)c3n2)cn1
obsValue: 1000 to 10000 nM
//
compound: N#CCC1(n2cc(-c3ncnc4[nH]ccc34)cn2)CN(C2CCN(C(=O)Nc3ccc(Cl)cc3F)CC2)C1
obsValue: ≤ 5 nM
//
compound: Nc1cc2ccc1-c1ccnc(n1)Nc1ccc(OCc3ccccc3F)c(c1)COCCCCNC2=O
obsValue: 1000 to 10000 nM
//
compound: N#CCC1(n2cc(-c3c(F)cnc4[nH]ccc34)cn2)CN(C2CCN(C(=O)c3c(F)cncc3F)CC2)C1
obsValue: ≤ 5 nM
//
compound: COC(=O)c1ccccc1NC(=O)N1CCC(N2CC(CC#N)(n3cc(-c4ncnc5[nH]ccc45)cn3)C2)CC1
obsValue: ≤ 5 nM
//
compound: CCS(=O)(=O)N1CC(CC#N)(n2cc(-c3nc(Nc4cnn(CCO)c4)nc4ccsc34)cn2)C1
obsValue: < 50 nM
//
compound: Cn1cc(-c2cc3nccn3c(-c3cnn(C4(CCF)CN(S(C)(=O)=O)C4)c3)n2)cn1
obsValue: 100 to 1000 nM
//
compound: CC[C@H](Cn1ccc2cnc(Nc3cnn(CC(=O)O[C@@H]4CCN(C)C4)c3)nc21)C(C)C
obsValue: < 100 nM
//
compound: Cn1nccc1-c1cc2c(N[C@@H]3CC[C@](C)(O)C3(C)C)c(C(N)=O)cnn2c1 (racemic)
obsValue: 46.4 nM

###

pIC50: −log10 of the molar value.
Here we gather pIC50 data for Tyrosine-protein kinase JAK1 (Homo sapiens) reported by several publications.
assayReadout: pIC50

compound: CCN1CCN(C2(CC#N)CN(c3nc(Nc4cc(C)ns4)ncc3C)C2)CC1
target: Tyrosine-protein kinase JAK1 (Homo sapiens)
obsValue: > 8.00
--
compound: CCOC(=O)c1cnc2[nH]ccc2c1N[C@@H]1CCCN(C(=O)C(C)C#N)C1 (some centres unmarked)
target: Tyrosine-protein kinase JAK1 (Homo sapiens)
obsValue: ≥ 8.00
--
compound: CCCS(=O)(=O)N[C@H]1C[C@@H](Nc2c(-c3nc(C(=O)NC)cs3)cnc3[nH]ccc23)C1
target: Tyrosine-protein kinase JAK1 (Homo sapiens)
obsValue: 7.00 to 8.00
--
compound: N#CCC1(n2cc(-c3ncnc4[nH]ccc34)cn2)CN(C2CCN(C(=O)c3ccc(-c4ccc(F)c(F)c4)c(F)c3)CC2)C1
target: Tyrosine-protein kinase JAK1 (Homo sapiens)
obsValue: 7.70 to 8.30
--
compound: N#CCN1CC2(CCC(c3cccc4nc(NC(=O)C5CC5)nn34)CC2)C1
target: Tyrosine-protein kinase JAK1 (Homo sapiens)
obsValue: 6.94
--
compound: COc1nccc(-c2cnc3[nH]ccc3c2N[C@@H]2CCCN(C(=O)CC#N)C2)n1
target: Tyrosine-protein kinase JAK1 (Homo sapiens)
obsValue: ≥ 8.00
--
compound: COc1ncccc1NC(=O)N1CCC(N2CC(CC#N)(n3ccc(-c4ncnc5[nH]ccc45)c3)C2)CC1
target: Tyrosine-protein kinase JAK1 (Homo sapiens)
obsValue: ≥ 8.30
--
compound: Cc1cc(Nc2nc(N[C@@H]3C[C@H]4CC[C@@H](C3)N4CCC#N)nc3cc(-n4ccnc4)ccc23)n[nH]1
target: Tyrosine-protein kinase JAK1 (Homo sapiens)
obsValue: 9.64
--
compound: N#CCC1(n2cc(-c3ncnc4[nH]ccc34)cn2)CN(C2CCN(C(=O)c3c(F)cccc3C(F)(F)F)CC2)C1
target: Tyrosine-protein kinase JAK1 (Homo sapiens)
obsValue: ≥ 8.30
--
compound: N#CCC1(n2cc(-c3ccnc4[nH]ccc34)cn2)CN(C2CCN(C(=O)c3ccc(O)c(F)c3)CC2)C1
target: Tyrosine-protein kinase JAK1 (Homo sapiens)
obsValue: ≥ 8.30
--
compound: CN(c1ncnc2[nH]ccc12)C1CC2(C1)CN(C(=O)CCS(C)(=O)=O)C2
target: Tyrosine-protein kinase JAK1 (Homo sapiens)
obsValue: 6.00 to 7.00
--
compound: Cc1nnc(-c2cnc3[nH]ccc3c2N[C@H]2C[C@@H](NS(=O)(=O)c3cccc(C#N)c3)C2)o1
target: Tyrosine-protein kinase JAK1 (Homo sapiens)
obsValue: ≥ 8.00
--
compound: Cc1cc(Nc2ncc(C)c(N3CC(CC#N)(N4CC(C5CC5)C4)C3)n2)sn1
target: Tyrosine-protein kinase JAK1 (Homo sapiens)
obsValue: > 8.00
--
compound: Cn1cc(-c2cc3nccn3c(-c3cnn(C4(CC#N)CN(CC5CCC5)C4)c3)n2)cn1
target: Tyrosine-protein kinase JAK1 (Homo sapiens)
obsValue: < 6.00
--
compound: Cc1cc2ccc1-c1nc(ncc1C)Nc1cccc(c1)COCCCCNC2=O
target: Tyrosine-protein kinase JAK1 (Homo sapiens)
obsValue: < 5.00
--
compound: CSCCn1cc(-c2nc(-c3cnn(C)c3)cc3nccn23)cn1
target: Tyrosine-protein kinase JAK1 (Homo sapiens)
obsValue: 6.00 to 7.00
--
compound: N#CCC1(n2cc(-c3ncnc4[nH]ccc34)cn2)CN(C2CCN(Cc3cc(Cl)cc(Cl)c3)CC2)C1
target: Tyrosine-protein kinase JAK1 (Homo sapiens)
obsValue: ≥ 8.30
--
compound: COCCOC(=O)c1cnc2[nH]ccc2c1N[C@H]1CCC[C@H](CCC#N)C1 (racemic)
target: Tyrosine-protein kinase JAK1 (Homo sapiens)
obsValue: 7.00 to 8.00
--
compound: N#Cc1cccc(S(=O)(=O)N[C@H]2C[C@@H](Nc3c(-c4ncco4)cnc4[nH]ccc34)C2)c1
target: Tyrosine-protein kinase JAK1 (Homo sapiens)
obsValue: ≥ 8.00
--
compound: CO[C@H]1CNc2cc(Nc3ncc(C(N)=O)c(NC4C5CC6CC4CC(OC)(C6)C5)n3)ccc2OC1 (some centres unmarked)
target: Tyrosine-protein kinase JAK1 (Homo sapiens)
obsValue: > 8.00
--
compound: Cc1ncc(NC(=O)N2C[C@H]3C[C@H](N(C)c4ncnc5[nH]ccc45)C[C@H]3C2)s1
target: Tyrosine-protein kinase JAK1 (Homo sapiens)
obsValue: 6.92
--
compound: CC1CCNC(=O)c2ccc(c([N+](=O)[O-])c2)-c2ccnc(n2)Nc2ccc(OCC3CCCOC3)c(c2)COC1 (centres unmarked)
target: Tyrosine-protein kinase JAK1 (Homo sapiens)
obsValue: 5.00 to 6.00
--
compound: CCc1cc(O)c(F)cc1-c1cc2[nH]nc(-n3cccn3)c2c(NCc2ccccc2N(C)S(C)(=O)=O)n1
target: Tyrosine-protein kinase JAK1 (Homo sapiens)
obsValue: 8.39
